Give Inhibition for every item shown.
Test system: Plasmodium falciparum
Assay: GSK_TCMDC: Inhibition of Plasmodium falciparum 3D7 in whole red blood cells, using parasite LDH activity as an index of growth. Test compounds present at 2uM
Assay type: functional
Please state the figure in %; there is no need to write the unit.

(Q) What does the data say about its Inhibition? Entry: Oc1ccccc1CN1CCC2(CCCN(Cc3ccccc3F)C2)C1 (stereo not given)
(A) 98

(Q) What does the data say about its Inhibition? Entry: CC(C)C(C(=O)Nc1ccc2c(c1)OCO2)c1ccc(Cl)cc1 (stereo not given)
(A) 98

(Q) What does the data say about its Inhibition? Entry: `Cc1nc2nc(N)nc(N)c2c(C)c1Cc1cccc(C(F)(F)F)c1.Cl`
(A) 89

(Q) What does the data say about its Inhibition? Entry: `O=C(CSc1nccn1Cc1ccco1)Nc1cc(C(F)(F)F)ccc1Cl`
(A) 91

(Q) What does the data say about its Inhibition? Entry: `Cc1ccc(-c2ccn(Cc3cccc(OCc4ccccc4)c3)n2)cn1.Cc1ccc(-c2ccnn2Cc2cccc(OCc3ccccc3)c2)cn1`
(A) 82
